Target or test system: human SGLT2 (Homo sapiens, UniProt P31639)
Construct: expressed in transfected cells
Sequence (P31639 whole entry): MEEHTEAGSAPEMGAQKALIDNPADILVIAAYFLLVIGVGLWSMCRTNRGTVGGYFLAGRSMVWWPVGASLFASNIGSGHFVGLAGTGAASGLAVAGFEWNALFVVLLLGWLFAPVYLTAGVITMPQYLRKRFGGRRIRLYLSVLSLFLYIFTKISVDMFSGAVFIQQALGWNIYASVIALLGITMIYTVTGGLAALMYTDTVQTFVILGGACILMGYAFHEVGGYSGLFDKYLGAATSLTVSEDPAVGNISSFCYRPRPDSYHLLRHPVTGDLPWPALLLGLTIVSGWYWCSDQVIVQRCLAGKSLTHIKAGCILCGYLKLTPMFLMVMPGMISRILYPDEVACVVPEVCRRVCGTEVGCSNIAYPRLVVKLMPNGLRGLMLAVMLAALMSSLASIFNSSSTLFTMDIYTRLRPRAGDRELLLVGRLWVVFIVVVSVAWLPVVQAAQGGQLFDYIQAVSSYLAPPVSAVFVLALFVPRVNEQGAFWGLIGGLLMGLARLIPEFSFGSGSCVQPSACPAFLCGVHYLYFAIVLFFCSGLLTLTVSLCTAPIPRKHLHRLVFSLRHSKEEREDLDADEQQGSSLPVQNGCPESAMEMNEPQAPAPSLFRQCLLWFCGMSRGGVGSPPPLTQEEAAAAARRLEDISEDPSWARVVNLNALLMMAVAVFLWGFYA
Run description: SGLT2 assay: Na-dependent 14C-AMG uptake in CHO-K1 cells stably expressing human SGLT2
Format: cell-based
Condition description: @ 0.3 μM
The entries below are paired with their reported SGLT2 %-inhibition.
Record the value in % @ 0.3 μM, omitting the unit from your answer.

Some entries whose results are on file:
COc1c([C@@H]2O[C@H](CO)[C@@H](F)[C@H](O)[C@H]2O)cc(Cc2ccc(OCF)cc2)c2c1CCO2: 85.8
COc1cc(OC)c([C@@H]2O[C@H](CO)[C@@H](F)[C@H](O)[C@H]2O)cc1Cc1cc2c(s1)CCN(C#N)C2: 81.2
COc1c(Cc2cc3ccccc3s2)cc([C@@H]2O[C@H](CO)[C@@H](F)[C@H](O)[C@H]2O)c(O)c1C: 36.0

// switching to the query molecule
Recorded SGLT2 %-inhibition for COc1cc(CO)c([C@@H]2O[C@H](CO)[C@@H](F)[C@H](O)[C@H]2O)cc1Cc1cc2ccccc2s1 with human SGLT2 (Homo sapiens, UniProt P31639), please? 27.6

###

Target or test system: human SGLT1 (Homo sapiens, UniProt P13866)
Construct: expressed in transfected cells
Sequence (P13866 1-664): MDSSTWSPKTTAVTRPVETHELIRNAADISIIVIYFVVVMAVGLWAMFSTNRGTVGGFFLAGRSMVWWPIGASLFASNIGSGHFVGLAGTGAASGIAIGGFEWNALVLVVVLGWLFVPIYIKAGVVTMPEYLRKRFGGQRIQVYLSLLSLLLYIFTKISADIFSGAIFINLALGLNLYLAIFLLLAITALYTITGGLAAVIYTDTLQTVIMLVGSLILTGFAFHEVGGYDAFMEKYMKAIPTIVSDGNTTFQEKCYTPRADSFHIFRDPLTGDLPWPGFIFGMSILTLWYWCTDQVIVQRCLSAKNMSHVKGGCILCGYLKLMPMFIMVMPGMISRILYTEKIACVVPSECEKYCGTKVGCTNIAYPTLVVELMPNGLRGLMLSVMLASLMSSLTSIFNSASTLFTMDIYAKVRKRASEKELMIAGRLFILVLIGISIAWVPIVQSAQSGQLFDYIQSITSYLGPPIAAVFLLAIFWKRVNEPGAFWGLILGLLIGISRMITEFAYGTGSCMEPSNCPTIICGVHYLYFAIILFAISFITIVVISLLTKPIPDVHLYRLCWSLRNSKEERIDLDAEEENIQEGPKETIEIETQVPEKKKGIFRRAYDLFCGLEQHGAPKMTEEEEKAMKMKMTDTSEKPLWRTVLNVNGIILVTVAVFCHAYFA
Run description: SGLT1 assay: Na-dependent 14C-AMG uptake in CHO-K1 cells stably expressing human SGLT1
Type: cell-based
Condition description: @ 0.3 μM
Returns Fulfilled if the recorded SGLT1 %-inhibition is greater than or equal to 30 % @ 0.3 μM, and Not fulfilled otherwise.

COc1c(Cc2cc3ccccc3s2)cc([C@@H]2O[C@H](CO)[C@@H](F)[C@H](O)[C@H]2O)c(O)c1C [Compound 14]: Fulfilled
CCc1cc(OC)c([C@@H]2O[C@H](CO)[C@@H](F)[C@H](O)[C@H]2O)cc1Cc1cc2c(s1)CCN(C#N)C2 [Compound 115]: Fulfilled
O=C1COc2cc(Cc3cc([C@@H]4O[C@H](CO)[C@@H](F)[C@H](O)[C@H]4O)cc4c3OCC4)ccc2N1 [Compound 97]: Fulfilled
COc1cc(CO)c([C@@H]2O[C@H](CO)[C@@H](F)[C@H](O)[C@H]2O)cc1Cc1cc2ccccc2s1 [Compound 34]: Fulfilled

// inclusive: SGLT1 %-inhibition at least 30 % @ 0.3 μM? input: CC1(C)Oc2c(Cc3ccc4c(c3)OCCO4)cc([C@@H]3O[C@H](CO)[C@@H](F)[C@H](O)[C@H]3O)cc2C1CO (stereo partly shown) [Compound 85] Fulfilled

Has N#CN1CCc2sc(Cc3cc([C@@H]4O[C@H](CO)[C@@H](F)[C@H](O)[C@H]4O)ccc3Cl)cc2C1 [Compound 121] a recorded SGLT1 %-inhibition greater than or equal to 30 % @ 0.3 μM? Not fulfilled

Is reported SGLT1 %-inhibition greater than or equal to 30 % @ 0.3 μM here: Cc1ccc([C@@H]2O[C@H](CO)[C@@H](F)[C@H](O)[C@H]2O)cc1Cc1cc2c(s1)CCCC2=O [Compound 116] Not fulfilled

Provenance of the data: patent US11014917B2
